# Measurement target: SCRIB_2, Q14160
# Sequence (Q14160 857-960): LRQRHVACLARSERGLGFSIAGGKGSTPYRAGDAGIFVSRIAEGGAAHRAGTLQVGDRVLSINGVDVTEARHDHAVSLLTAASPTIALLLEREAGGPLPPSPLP
# Assay: holdup assay
# Set-up: key: below the threshold = too weak to quantify, mostly under pKd 3.1 to 4
# Assay context: plain residues with an end cap or a label only (N-terminal biotin on a linker: ado-ado)
Recorded endpoint: pKd

binder="LVEEEEPMNL [HDAC7, Q8WUI4]" recorded_endpoint=pKd assay_value="below the threshold"
binder="FHSIKQSTAV [CRHR1, P34998]" recorded_endpoint=pKd assay_value=4.18
binder="GSQSQVETEA [FKBP4, Q02790]" recorded_endpoint=pKd assay_value="below the threshold"
binder="SRPHTNETSL [MCC, P23508]" recorded_endpoint=pKd assay_value=4.28
binder="HYPASPDSWV [CTNND2, Q9UQB3]" recorded_endpoint=pKd assay_value=4.81
binder="STYCDYTIEI [FAM71C, Q8NEG0]" recorded_endpoint=pKd assay_value="below the threshold"
binder="PEKVSNTTVV [IGSF5, Q9NSI5]" recorded_endpoint=pKd assay_value="below the threshold"
binder="PAALPESTHM [SLC9A3, P48764]" recorded_endpoint=pKd assay_value="below the threshold"
binder="AHGSTRDQSI [KCNB1, Q14721]" recorded_endpoint=pKd assay_value="below the threshold"
binder="HDDYFYHDEL [RCN2, Q14257]" recorded_endpoint=pKd assay_value="below the threshold"
binder="GQNMTVSVVI [PRLHR, P49683]" recorded_endpoint=pKd assay_value="below the threshold"
binder="EKPIDSETKM [SLC1A3, P43003]" recorded_endpoint=pKd assay_value="below the threshold"
binder="DAAHHDESNC [FMNL3, Q8IVF7]" recorded_endpoint=pKd assay_value="below the threshold"
binder="PSDSVGKDVF [EGLN1, Q9GZT9]" recorded_endpoint=pKd assay_value="below the threshold"
binder="TKDKVQETQI [LRRC4, Q9HBW1]" recorded_endpoint=pKd assay_value=4.41
binder="TNSKQGETTV [FZD1, Q9UP38]" recorded_endpoint=pKd assay_value=4.01
